Biological target: T1, mucin domain-deleted Sudan GP (GPdMuc) (Sudan virus (SUDV), UniProt Q7T9D9 33-632)
T1 construct: also called Sudan GPdMuc; GP(S)dMuc
Experiment: BLI competition on Sudan GPdMuc (lower table); competitor 16F6
measurementType: % inhibition of binding (%)
Report the figure in % without appending any unit label.

Which % inhibition of binding value is on record for antibody 285S (antibody, V domains shown) VH: QVQLVQSGAEVKKPGSSVKVSCKASGGTFSTYAITWVRQAPGQGLEWMGRIIPILRVANYAQKFQGRVTITADSSTSTAYMELSSLRSEDTAVYYCANLLAYCGGDCRSDYWGQGTLVTVSS VL: EIVLTQSPGTLSLSPGERATLSCRASQSVKNSYLAWYHQKPGQAPRLLIYGASSRATGIPDRFSGSGSGTDFTLTISRLEPEDFAVYYCQQYGSSLWTFGQGTKVDVK ?
3.29

Which % inhibition of binding value is on record for antibody 578S (antibody, V domains shown) VH: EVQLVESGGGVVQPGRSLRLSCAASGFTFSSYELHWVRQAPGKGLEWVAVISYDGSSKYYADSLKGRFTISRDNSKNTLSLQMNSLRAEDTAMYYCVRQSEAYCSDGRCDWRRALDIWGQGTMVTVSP VL: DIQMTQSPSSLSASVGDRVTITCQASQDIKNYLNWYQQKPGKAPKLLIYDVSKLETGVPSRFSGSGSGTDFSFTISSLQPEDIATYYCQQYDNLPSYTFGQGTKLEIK ?
11.1

Which % inhibition of binding value is on record for antibody 365S (antibody, V domains shown) VH: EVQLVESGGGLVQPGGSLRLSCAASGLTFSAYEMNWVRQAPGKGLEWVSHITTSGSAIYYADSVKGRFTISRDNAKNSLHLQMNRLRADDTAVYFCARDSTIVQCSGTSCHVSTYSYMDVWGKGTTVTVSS VL: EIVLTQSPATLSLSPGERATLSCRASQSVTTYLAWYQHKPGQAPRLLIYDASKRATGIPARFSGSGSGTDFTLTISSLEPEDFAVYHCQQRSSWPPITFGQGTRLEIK ?
12
